- system.name: CDK2/Cyclin E1 (Homo sapiens, UniProt P24941)
- test.summary: ADP-Glo Luminescent Kinase Assay (CDK2/E1-37C)
- Type: biochemical
- condition: 0.18 nM CDK2/Cyclin E1, 100 μM ATP, Histone H1, 37° C.; read-out: ADPGLO (CDK2/E1-37C): IC50
Form field: IC50 (one value per entry).
observed.property: IC50

>  <molecule>
O=C(O)c1c(COC[C@H]2CN(c3cc(F)c(F)c4ncsc34)CC23CN(C(=O)C2(C(F)(F)F)CC2)C3)cccc1C1CCC(F)(F)CC1

>  <observed.property>
IC50

>  <result>
500 to 5000 nM

$$$$
>  <molecule>
CC1(C)C[C@@H]1C(=O)N1CC2(CN(C(=O)c3cnn(Cc4ccc(F)cc4)c3)C[C@H]2COCc2cccc(C3CCC(F)(F)CC3)c2C#N)C1

>  <observed.property>
IC50

>  <result>
≤ 500 nM

$$$$
>  <molecule>
CC(C)(C(=O)N1CC2(CN(C(=O)c3cnn(Cc4ccc(F)cc4)c3)C[C@H]2COCc2ccccc2C(=O)O)C1)C(F)(F)F

>  <observed.property>
IC50

>  <result>
> 10000 nM

$$$$
>  <molecule>
O=C(O)c1c(CCC2CN(C(=O)c3cnn(Cc4ccc(F)cc4)c3)CC23CN(C(=O)C2(C(F)(F)F)CC2)C3)cccc1C1CCC(F)(F)CC1 (centres unmarked)

>  <observed.property>
IC50

>  <result>
≤ 500 nM

$$$$
>  <molecule>
CC(C)(C(=O)N1CC2(CN(C(=O)c3cnn(Cc4ccc(F)cc4)c3)C[C@H]2COCc2ccc(F)c(C3CCC(F)(F)CC3)c2C(=O)O)C1)C(F)(F)F

>  <observed.property>
IC50

>  <result>
≤ 500 nM

$$$$
>  <molecule>
CC1(C)C[C@@H]1C(=O)N1CC2(CN(C(=O)c3cnn(Cc4ccc(F)cc4)c3)CC2COCc2cccc(C3CCC(F)(F)CC3)c2C(=O)O)C1 (some centres unmarked)

>  <observed.property>
IC50

>  <result>
≤ 500 nM

$$$$
>  <molecule>
C[C@@H](c1ccc(F)cc1)n1cc(C(=O)N2CC(COCc3cccc(C4CCC(C(F)(F)F)CC4)c3C(=O)O)C3(C2)CN(C(=O)C2(C(F)(F)F)CC2)C3)cn1 (some centres unmarked)

>  <observed.property>
IC50

>  <result>
500 to 5000 nM

$$$$
>  <molecule>
CC(C)(C(=O)N1CC2(CN(C(=O)c3cnn(Cc4ccc(F)cc4)c3)C[C@H]2COCc2cccc(-c3ccc(F)cc3)c2C(=O)O)C1)C(F)(F)F

>  <observed.property>
IC50

>  <result>
≤ 500 nM

$$$$
>  <molecule>
CC(C)(C(=O)N1CC2(CN(C(=O)c3cnn(Cc4ccc(F)cc4)c3)C[C@H]2COCc2c(F)ccc(C3CCC(F)(F)CC3)c2C(=O)O)C1)C(F)(F)F

>  <observed.property>
IC50

>  <result>
≤ 500 nM

$$$$
>  <molecule>
N#Cc1c(COCC2CN(C(=O)c3cnn(Cc4ccc(C(F)(F)F)cc4)c3)CC23CN(C(=O)C2(C(F)(F)F)CC2)C3)cccc1C1CCC(C(F)(F)F)CC1 (centres unmarked)

>  <observed.property>
IC50

>  <result>
500 to 5000 nM

$$$$
>  <molecule>
O=C(O)c1ccc(C2CCN(C(=O)COCC3CN(C(=O)c4cnn(Cc5ccccc5)c4)CC34CN(C(=O)C3(C(F)(F)F)CC3)C4)CC2)c(OC2CCCCC2)c1 (centres unmarked)

>  <observed.property>
IC50

>  <result>
> 10000 nM

$$$$
>  <molecule>
O=C(O)c1c(COC[C@@H]2CN(c3cc(F)c(F)c4nc(C(F)(F)F)sc34)CC23CN(C(=O)C2(C(F)(F)F)CC2)C3)cccc1C1CCC(F)(F)CC1

>  <observed.property>
IC50

>  <result>
> 10000 nM

$$$$
>  <molecule>
CC(C(=O)N1CC2(CN(C(=O)c3cnn(Cc4ccc(F)cc4)c3)C[C@H]2COCc2cccc(C3CCC(C(F)(F)F)CC3)c2C(=O)O)C1)(C(F)(F)F)C(F)(F)F (some centres unmarked)

>  <observed.property>
IC50

>  <result>
≤ 500 nM

$$$$
>  <molecule>
CC1(C)C[C@@H]1C(=O)N1CC2(CN(C(=O)c3cnn(Cc4ccc(F)cc4)c3)CC2COCc2cccc(C3CCC(C(F)(F)F)CC3)c2C(N)=O)C1 (some centres unmarked)

>  <observed.property>
IC50

>  <result>
≤ 500 nM

$$$$
>  <molecule>
O=C(O)C(Cc1cccc(-c2ccc(C(F)(F)F)cc2)n1)CC1CN(C(=O)c2cnn(Cc3ccc(C(F)(F)F)cc3)c2)CC12CN(C(=O)C1(C(F)(F)F)CC1)C2 (centres unmarked)

>  <observed.property>
IC50

>  <result>
> 10000 nM

$$$$
>  <molecule>
CC(C)(C(=O)N1CC2(CN(C(=O)c3cnn(Cc4ccc(F)cc4)c3)C[C@H]2COCc2cccc(-c3ccccc3)c2)C1)C(F)(F)F

>  <observed.property>
IC50

>  <result>
500 to 5000 nM

$$$$
>  <molecule>
CN(C)S(=O)(=O)NC(=O)c1c(COC[C@@H]2CN(C(=O)c3cnn(Cc4ccc(F)cc4)c3)CC23CN(C(=O)[C@H]2CC2(C)C)C3)cccc1C1CCC(F)(F)CC1

>  <observed.property>
IC50

>  <result>
≤ 500 nM

$$$$
>  <molecule>
O=C(c1cnn(Cc2ccc(F)cc2)c1)N1CC(COCc2cccc(C3CCC(F)(F)CC3)c2-c2n[nH]c(=O)o2)C2(C1)CN(C(=O)C1(C(F)(F)F)CC1)C2 (centres unmarked)

>  <observed.property>
IC50

>  <result>
≤ 500 nM

$$$$
>  <molecule>
NC(=O)c1c(COC[C@@H]2CN(c3cc(C(=O)O)cc4ncsc34)CC23CN(C(=O)C2(C(F)(F)F)CC2)C3)cccc1C1CCC(F)(F)CC1

>  <observed.property>
IC50

>  <result>
> 10000 nM

$$$$
>  <molecule>
CC(C)(C(=O)N1CC2(CN(C(=O)c3cnn(Cc4ccc(F)cc4)c3)C[C@H]2COCc2cccc(C3CCC(F)(F)CC3)c2C#N)C1)C(F)(F)F

>  <observed.property>
IC50

>  <result>
≤ 500 nM

$$$$
>  <molecule>
O=C(O)C(=CC1CN(C(=O)c2cnn(Cc3ccc(C(F)(F)F)cc3)c2)CC12CN(C(=O)C1(C(F)(F)F)CC1)C2)Cc1cccc(-c2ccc(C(F)(F)F)cc2)n1 (centres unmarked)

>  <observed.property>
IC50

>  <result>
> 10000 nM

$$$$
>  <molecule>
O=C(O)c1c(OCCC2CN(C(=O)c3cnn(Cc4ccc(F)cc4)c3)CC23CN(C(=O)C2(C(F)(F)F)CC2)C3)cccc1C1CCC(F)(F)CC1 (centres unmarked)

>  <observed.property>
IC50

>  <result>
≤ 500 nM

$$$$
>  <molecule>
CC(C)(C(=O)N1CC2(CN(C(=O)c3cnn(Cc4ccc(F)cc4)c3)C[C@H]2COCc2cccc(C3CCC(F)(F)CC3)c2C(=O)NCCN2CCOCC2)C1)C(F)(F)F

>  <observed.property>
IC50

>  <result>
≤ 500 nM

$$$$

---

- system.name: CDK2/Cyclin E1 (Homo sapiens)
- test.summary: ADP-Glo Luminescent Kinase Assay (CDK2/E1-37C)
- Format: biochemical
- condition: 0.18 nM CDK2/Cyclin E1, 100 μM ATP, Histone H1, 37° C.; read-out: ADPGLO (CDK2/E1-37C): IC50
pIC50: −log10 of the molar value.

>  <compound>
O=C(NS(=O)(=O)c1cccc(C2CCOCC2)c1)C1CN(c2cc(F)cc3ncsc23)CC12CN(C(=O)C1(C(F)(F)F)CC1)C2 (stereo not shown)

>  <pIC50>
< 5.00

$$$$
>  <compound>
O=C(O)c1c(COC[C@@H]2CN(C(=O)c3cnn(Cc4ccc(C(F)(F)F)cc4)c3)CC23CN(C(=O)C2(C(F)(F)F)CC2)C3)cccc1N1CCC(C(F)(F)F)CC1

>  <pIC50>
5.30 to 6.30

$$$$
>  <compound>
O=C(O)c1c(COC[C@@H]2CN(C(=O)c3c[nH]nc3Cc3ccccc3)CC23CN(C(=O)C2(C(F)(F)F)CC2)C3)cccc1C1CCC(C(F)(F)F)CC1 (stereo partly shown)

>  <pIC50>
5.30 to 6.30

$$$$
>  <compound>
CC1(C)C[C@@H]1C(=O)N1CC2(CN(C(=O)c3cnn(Cc4ccc(F)cc4)c3)C[C@H]2COCc2cccc(C3CCC(F)(F)CC3)c2C(=O)NCCN2CCOCC2)C1

>  <pIC50>
≥ 6.30

$$$$
>  <compound>
O=C(O)COc1c(COC[C@@H]2CN(C(=O)c3cnn(Cc4ccc(F)cc4)c3)CC23CN(C(=O)C2(C(F)(F)F)CC2)C3)cccc1C1CCC(C(F)(F)F)CC1 (stereo partly shown)

>  <pIC50>
≥ 6.30

$$$$
>  <compound>
O=C(O)c1c(COC[C@@H]2CN(C(=O)c3cnn(Cc4ccc(F)cc4)c3)CC23CN(C(=O)C2(C(F)(F)F)CCC2)C3)cccc1C1CCC(C(F)(F)F)CC1 (stereo partly shown)

>  <pIC50>
≥ 6.30

$$$$
>  <compound>
CC(C)(C(=O)N1CC2(C1)CN(c1cc(F)c(F)c3ncsc13)C[C@H]2COCc1c(F)ccc(C2CCC(F)(F)CC2)c1C(=O)O)C(F)(F)F

>  <pIC50>
≥ 6.30

$$$$
>  <compound>
CC1CCC(c2cccc(COC[C@@H]3CN(c4cc(F)c(F)c5ncsc45)CC34CN(C(=O)C(C)(C)C(F)(F)F)C4)c2C(=O)O)CC1 (stereo partly shown)

>  <pIC50>
≥ 6.30

$$$$
>  <compound>
O=C(O)c1c(COC[C@@H]2CN(c3cc(Cl)c(Cl)c4ncsc34)CC23CN(C(=O)C2(C(F)(F)F)CC2)C3)cccc1C1CCC(F)(F)CC1

>  <pIC50>
5.30 to 6.30

$$$$
>  <compound>
CC1(C)C[C@@H]1C(=O)N1CC2(CN(C(=O)c3cncs3)C[C@H]2COCc2cccc(-c3ccc(C(F)(F)F)cc3)n2)C1

>  <pIC50>
5.30 to 6.30

$$$$
>  <compound>
NC(=O)c1c(COC[C@@H]2CN(C(=O)c3cnn(Cc4ccccc4C(=O)O)c3)CC23CN(C(=O)C2(C(F)(F)F)CC2)C3)cccc1C1CCC(F)(F)CC1

>  <pIC50>
≥ 6.30

$$$$
>  <compound>
CC(C)(C(=O)N1CC2(CN(C(=O)c3cnn(Cc4ccc(F)cc4C(F)(F)F)c3)C[C@H]2COCc2cccc(C3CCC(F)(F)CC3)c2C(=O)O)C1)C(F)(F)F

>  <pIC50>
≥ 6.30

$$$$
>  <compound>
CC1(C)C[C@@H]1C(=O)N1CC2(CN(C(=O)c3cnn(Cc4ccc(F)cc4)c3)CC2COc2cccc(C3CCC(F)(F)CC3)c2C(=O)O)C1 (stereo partly shown)

>  <pIC50>
≥ 6.30

$$$$
>  <compound>
O=C(O)C(=CC1CN(C(=O)c2cnc(O)cn2)CC12CN(C(=O)C1(C(F)(F)F)CC1)C2)Cc1cccc(-c2ccc(C(F)(F)F)cc2)n1 (stereo not shown)

>  <pIC50>
< 5.00

$$$$
>  <compound>
CC1(C)C[C@@H]1C(=O)N1CC2(CN(C(=O)c3cnn(Cc4ccc(F)cc4)c3)CC2C#CCc2cccc(C3CCC(F)(F)CC3)c2C(=O)O)C1 (stereo partly shown)

>  <pIC50>
< 5.00

$$$$
>  <compound>
CC1(C)C[C@@H]1C(=O)N1CC2(CN(C(=O)c3cnn(Cc4ccc(F)cc4)c3)C[C@H]2COCc2cccc(C3CCC(F)(F)CC3)c2-c2nn[nH]n2)C1

>  <pIC50>
≥ 6.30

$$$$
>  <compound>
O=C(O)c1c(COCC2CN(Cc3cnn(Cc4ccc(F)cc4)c3)C(=O)C23CN(C(=O)C2(C(F)(F)F)CC2)C3)cccc1C1CCC(C(F)(F)F)CC1 (stereo not shown)

>  <pIC50>
< 5.00

$$$$
>  <compound>
O=C(O)c1c(COC[C@@H]2CN(C(=O)c3cnn(Cc4ccc(F)cc4)c3)CC23CN(C(=O)CC2(C(F)(F)F)CC2)C3)cccc1C1CCC(C(F)(F)F)CC1 (stereo partly shown)

>  <pIC50>
5.30 to 6.30

$$$$
>  <compound>
CC(C)(C(=O)N1CC2(CN(C(=O)c3cnn(Cc4ccc(F)cc4)c3)C[C@H]2COCc2cccc(C3CCC(F)(F)CC3)c2-c2nn[nH]n2)C1)C(F)(F)F

>  <pIC50>
≥ 6.30

$$$$
>  <compound>
CC1(C)C[C@@H]1C(=O)N1CC2(CN(C(=O)c3cnn(Cc4ccc(F)cc4)c3)CC2COCc2cccc(C3CCC(F)(F)CC3)c2C#N)C1 (stereo partly shown)

>  <pIC50>
≥ 6.30

$$$$
>  <compound>
O=C(NS(=O)(=O)c1cccc(C2CCOCC2)c1)[C@@H]1CN(C(=O)c2cnn(Cc3ccc(C(F)(F)F)cc3)c2)CC12CN(C(=O)C1(C(F)(F)F)CC1)C2

>  <pIC50>
< 5.00

$$$$
>  <compound>
O=C(O)c1c(COC[C@@H]2CN(C(=O)c3cnn(Cc4ccc(F)cc4)c3)CC23CN(C(=O)C2COC2)C3)cccc1C1CCC(C(F)(F)F)CC1 (stereo partly shown)

>  <pIC50>
< 5.00

$$$$
